Attribution: patent US20240101674A1

Molecular target: T1, rhesus VEGFR2 protein (rhesus monkey)
T1 construct: Recombinant protein used in ELISA; also called rhesus monkey VEGFR2; rh VEGFR2
T1 chain: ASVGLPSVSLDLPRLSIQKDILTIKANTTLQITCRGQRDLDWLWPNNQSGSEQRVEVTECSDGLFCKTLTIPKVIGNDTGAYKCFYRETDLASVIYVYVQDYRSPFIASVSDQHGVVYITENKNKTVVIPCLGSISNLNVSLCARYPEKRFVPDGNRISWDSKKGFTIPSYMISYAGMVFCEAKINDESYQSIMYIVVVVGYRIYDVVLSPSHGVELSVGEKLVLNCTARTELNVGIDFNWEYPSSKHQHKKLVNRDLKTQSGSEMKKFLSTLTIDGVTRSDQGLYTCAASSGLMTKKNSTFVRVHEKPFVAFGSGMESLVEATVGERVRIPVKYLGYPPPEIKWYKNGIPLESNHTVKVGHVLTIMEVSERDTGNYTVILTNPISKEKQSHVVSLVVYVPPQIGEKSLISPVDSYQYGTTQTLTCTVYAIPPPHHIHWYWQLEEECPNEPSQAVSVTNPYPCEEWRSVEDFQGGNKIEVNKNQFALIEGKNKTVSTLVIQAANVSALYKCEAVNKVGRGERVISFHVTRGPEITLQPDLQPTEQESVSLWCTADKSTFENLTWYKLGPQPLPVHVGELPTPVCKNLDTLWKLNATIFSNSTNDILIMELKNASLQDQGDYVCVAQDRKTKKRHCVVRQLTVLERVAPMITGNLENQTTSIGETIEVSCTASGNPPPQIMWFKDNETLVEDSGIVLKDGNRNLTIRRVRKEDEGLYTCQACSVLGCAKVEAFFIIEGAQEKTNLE
Experiment: periprep Fab direct binding ELISA (FIG. 1)
measuredProperty: binding result

1) MAB02A03 Fab (Fab, V domains shown, Library-derived clone screened as human IgG1-kappa Fab in E. coli periplasmic extract; also called MAB02A03 (periprep Fab)) VH: EVQLVESGGGLVQPGGSLRLSCAASGFTFSSYMMSWVRQAPGKGLEWVATISGGGANTYYPDSVKGRFTISRDNAKNSLYLQMNSLRAEDTAVYYCARQLYYFDYWGQGTTVTVSS VL: DIQMTQSSSSLSASVGDRVTITCLASQGIGPWLSWYQQKPGKAPKLLIYTATSLADGVPSRFSGSGSGTDFTLTISSLQPEDFATYYCQQVYSIPWTFGGGTKVEIK    binds
2) MAB02B03 Fab (Fab, V domains shown, Library-derived clone screened as human IgG1-kappa Fab in E. coli periplasmic extract; also called MAB02B03 (periprep Fab)) VH: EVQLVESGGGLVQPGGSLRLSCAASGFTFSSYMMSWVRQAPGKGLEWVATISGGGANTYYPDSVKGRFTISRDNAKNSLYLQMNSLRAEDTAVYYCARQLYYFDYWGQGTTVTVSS VL: DIQMTQSPSSLSASVGDRVTITCLASQPLGIWLSWYQQKPGKAPKLLIYTATSLADGVPSRFSGSGSGTDFTLTISSLQPEDFATYYCQQVYSIPWTFGGGTKVEIK    binds
3) MAB05G03 Fab (Fab, V domains shown, Library-derived clone screened as human IgG1-kappa Fab in E. coli periplasmic extract; also called MAB05G03 (periprep Fab)) VH: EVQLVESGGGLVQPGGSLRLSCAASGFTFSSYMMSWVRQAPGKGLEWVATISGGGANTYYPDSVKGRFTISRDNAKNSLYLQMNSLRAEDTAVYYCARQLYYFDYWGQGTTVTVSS VL: DIQMTQSPSSLSASVGDRVTITCLASQTIGTWLTWYQQKPGKAPKLLIYTATSLADGVPSRFSGSGSGTDFTLTISSLQPEDFATYYCQQVAELPFGFGGGTKVEIK    binds
